B1: FCHO1 (parent)
chain: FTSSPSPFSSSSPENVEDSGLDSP

Variants of: B1
Assay: protein stability index of a GFP-peptide fusion (GPS, HEK-293T) (PSI 1-6); higher = more stable;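 note: lentivirally expressed fusions sorted by FACS into six bins by GFP to DsRed ratio, PSI derived from sequencing read proportions per bin multiplied by bin number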
Settings: c terminus: a fixed tail appended
protein stability index: recorded values
experimental_readout: protein stability index

• P24K = 1.96
• N15I = 2.05
• D18I = 2.01
• N15T = 2.04
• E17G = 1.96
• P24I = 1.96
• S12T = 2.01
• P24V = 2.02
• L21Q = 2.03
• P5E = 2.04
• S4G = 2
• S6G = 2.02
• D18M = 1.99
• S19A = 2.04
• S4D = 2.03
